The reported numbers originate from ChEMBL document CHEMBL1129041.

# Tested target: Angiotensin-converting enzyme (Mus musculus) (UniProt P09470)
# Sequence (P09470 whole entry): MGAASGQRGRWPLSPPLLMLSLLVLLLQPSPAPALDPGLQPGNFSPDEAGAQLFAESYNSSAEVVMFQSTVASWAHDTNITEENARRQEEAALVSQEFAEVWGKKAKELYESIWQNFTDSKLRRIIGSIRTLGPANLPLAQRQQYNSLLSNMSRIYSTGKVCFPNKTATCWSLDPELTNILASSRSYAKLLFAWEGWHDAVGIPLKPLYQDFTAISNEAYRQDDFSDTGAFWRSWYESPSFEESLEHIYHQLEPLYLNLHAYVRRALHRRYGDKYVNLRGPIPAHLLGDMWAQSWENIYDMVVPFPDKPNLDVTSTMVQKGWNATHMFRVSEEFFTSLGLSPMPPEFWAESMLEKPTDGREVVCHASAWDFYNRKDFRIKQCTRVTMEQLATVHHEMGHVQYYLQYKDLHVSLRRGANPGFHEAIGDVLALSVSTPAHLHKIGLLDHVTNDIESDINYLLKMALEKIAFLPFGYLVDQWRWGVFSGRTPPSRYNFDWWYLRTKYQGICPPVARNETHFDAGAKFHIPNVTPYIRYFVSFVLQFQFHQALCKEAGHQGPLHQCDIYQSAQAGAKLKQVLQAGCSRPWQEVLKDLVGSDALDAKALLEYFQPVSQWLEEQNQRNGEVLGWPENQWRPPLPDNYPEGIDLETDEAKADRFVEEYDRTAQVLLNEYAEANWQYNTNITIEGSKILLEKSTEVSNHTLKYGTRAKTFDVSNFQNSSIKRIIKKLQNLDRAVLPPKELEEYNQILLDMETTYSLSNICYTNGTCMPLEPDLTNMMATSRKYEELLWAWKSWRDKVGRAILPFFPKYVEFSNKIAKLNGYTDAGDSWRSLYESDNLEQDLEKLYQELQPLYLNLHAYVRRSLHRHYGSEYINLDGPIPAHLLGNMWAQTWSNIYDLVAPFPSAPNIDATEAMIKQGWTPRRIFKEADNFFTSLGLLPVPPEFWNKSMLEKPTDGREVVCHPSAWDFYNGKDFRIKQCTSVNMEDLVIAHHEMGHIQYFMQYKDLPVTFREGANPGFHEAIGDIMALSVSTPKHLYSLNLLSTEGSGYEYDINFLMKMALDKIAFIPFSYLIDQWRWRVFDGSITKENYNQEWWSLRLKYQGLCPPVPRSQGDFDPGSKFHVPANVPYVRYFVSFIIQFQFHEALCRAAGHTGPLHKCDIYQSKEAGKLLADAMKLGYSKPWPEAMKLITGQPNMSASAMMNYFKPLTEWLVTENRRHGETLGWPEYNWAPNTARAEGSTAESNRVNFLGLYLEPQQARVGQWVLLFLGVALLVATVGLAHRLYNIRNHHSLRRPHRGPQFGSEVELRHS
# Assay details: In vivo percent inhibition activity against lung Angiotensin I converting enzyme 2 hr after oral administration of a dose of 2.6 x 10e-5 mol/kg
# Assay type: functional, organism-based
Where inhibition equals or exceeds 60%, the correct label is 1.0; where it does not, the label is 0.0.

Prompt line: Determine whether measured inhibition meets or exceeds 60% for O=C(NCC(=O)N1[C@@H](c2ccccc2)CC[C@H]1C(=O)O)[C@@H](S)Cc1ccccc1
Response line: 1.0

Prompt line: Another: Cc1ccc([C@H]2CC[C@@H](C(=O)O)N2C(=O)CNC(=O)[C@@H](S)Cc2ccccc2)cc1
Response line: 0.0

Prompt line: Another: O=C(NCC(=O)N1[C@@H](c2ccccc2O)CC[C@H]1C(=O)O)[C@@H](S)Cc1ccc(O)cc1
Response line: 1.0

Prompt line: Another: Cc1ccc([C@H]2CC[C@@H](C(=O)O)N2C(=O)CNC(=O)[C@@H](S)Cc2ccc(O)cc2)cc1
Response line: 0.0

Prompt line: Another: Cc1ccccc1[C@H]1CC[C@@H](C(=O)O)N1C(=O)CNC(=O)[C@@H](S)Cc1ccccc1
Response line: 0.0

* * *

For each entry below, report its IC50 value.
# Tested target: Angiotensin-converting enzyme (Rattus norvegicus, UniProt P47820)
The figure you give is taken to be in nM; do not add the unit.

Prompt line: Any idea what its IC50 is? The compound is CC[C@H](C)C(S)C(=O)NCC(=O)N1[C@@H](c2ccccc2)CC[C@H]1C(=O)O (some centres undefined)
Response line: 3.7

Prompt line: Another: Cc1ccccc1[C@@H]1CCC(C(=O)O)N1C(=O)CNC(=O)[C@@H](S)Cc1ccc(O)cc1 (single isomer, unassigned)
Response line: 12.5

Prompt line: Another: O=C(NCC(=O)N1[C@@H](c2ccccc2)CC[C@H]1C(=O)O)[C@H](S)Cc1ccccc1
Response line: 25

Prompt line: Another: NCCCCC(S)C(=O)NCC(=O)N1[C@@H](c2ccccc2)CC[C@H]1C(=O)O (some centres undefined)
Response line: 403

* * *

# Tested target: Neprilysin (Mus musculus) (UniProt Q61391)
# Sequence (Q61391 whole entry): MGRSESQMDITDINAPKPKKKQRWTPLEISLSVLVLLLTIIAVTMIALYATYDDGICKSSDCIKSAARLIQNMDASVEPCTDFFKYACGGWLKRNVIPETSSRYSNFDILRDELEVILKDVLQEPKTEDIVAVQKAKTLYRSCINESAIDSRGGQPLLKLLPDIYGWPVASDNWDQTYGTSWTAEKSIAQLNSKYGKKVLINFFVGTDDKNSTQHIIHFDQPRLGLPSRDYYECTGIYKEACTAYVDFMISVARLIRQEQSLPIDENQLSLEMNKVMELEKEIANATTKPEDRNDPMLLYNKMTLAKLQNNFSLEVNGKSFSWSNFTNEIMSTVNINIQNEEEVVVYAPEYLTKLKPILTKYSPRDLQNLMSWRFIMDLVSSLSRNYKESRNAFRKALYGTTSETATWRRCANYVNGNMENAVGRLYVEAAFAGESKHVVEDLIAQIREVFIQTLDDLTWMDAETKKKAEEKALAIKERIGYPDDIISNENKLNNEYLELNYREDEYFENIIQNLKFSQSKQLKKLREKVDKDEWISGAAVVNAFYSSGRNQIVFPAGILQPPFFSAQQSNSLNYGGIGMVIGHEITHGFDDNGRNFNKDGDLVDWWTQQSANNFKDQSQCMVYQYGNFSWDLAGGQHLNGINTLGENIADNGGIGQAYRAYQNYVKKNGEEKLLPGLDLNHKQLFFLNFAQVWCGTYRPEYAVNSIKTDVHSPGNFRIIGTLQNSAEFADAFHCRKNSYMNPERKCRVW
# Assay details: In vivo percent inhibition activity against kidney Neutral endopeptidase 2 hr after oral administration of a dose of 2.6 x 10e-5 mol/kg
# Type: functional, organism-based
Outcome measure: inhibition (%)
The figure you give is taken to be in %; do not add the unit.

Prompt line: Any idea what its inhibition is? The molecule is Cc1ccc([C@H]2CC[C@@H](C(=O)O)N2C(=O)CNC(=O)[C@@H](S)Cc2ccccc2)cc1
Response line: 34

Prompt line: Another: O=C(NCC(=O)N1[C@@H](c2ccccc2)CC[C@H]1C(=O)O)[C@@H](S)Cc1ccccc1
Response line: 75

Prompt line: Another: O=C(NCC(=O)N1[C@@H](c2ccccc2O)CC[C@H]1C(=O)O)[C@@H](S)Cc1ccc(O)cc1
Response line: 69

Prompt line: Another: Cc1ccccc1[C@H]1CC[C@@H](C(=O)O)N1C(=O)CNC(=O)[C@@H](S)Cc1ccccc1
Response line: 37

Prompt line: Another: Cc1ccc([C@H]2CC[C@@H](C(=O)O)N2C(=O)CNC(=O)[C@@H](S)Cc2ccc(O)cc2)cc1
Response line: 3

Prompt line: Another: O=C(NCC(=O)N1[C@@H](c2cccc(O)c2)CC[C@H]1C(=O)O)[C@@H](S)Cc1ccc(O)cc1
Response line: 72

* * *

Neprilysin (Oryctolagus cuniculus, UniProt P08049) measurements of IC50, listed per entry.
Sequence (P08049 whole entry): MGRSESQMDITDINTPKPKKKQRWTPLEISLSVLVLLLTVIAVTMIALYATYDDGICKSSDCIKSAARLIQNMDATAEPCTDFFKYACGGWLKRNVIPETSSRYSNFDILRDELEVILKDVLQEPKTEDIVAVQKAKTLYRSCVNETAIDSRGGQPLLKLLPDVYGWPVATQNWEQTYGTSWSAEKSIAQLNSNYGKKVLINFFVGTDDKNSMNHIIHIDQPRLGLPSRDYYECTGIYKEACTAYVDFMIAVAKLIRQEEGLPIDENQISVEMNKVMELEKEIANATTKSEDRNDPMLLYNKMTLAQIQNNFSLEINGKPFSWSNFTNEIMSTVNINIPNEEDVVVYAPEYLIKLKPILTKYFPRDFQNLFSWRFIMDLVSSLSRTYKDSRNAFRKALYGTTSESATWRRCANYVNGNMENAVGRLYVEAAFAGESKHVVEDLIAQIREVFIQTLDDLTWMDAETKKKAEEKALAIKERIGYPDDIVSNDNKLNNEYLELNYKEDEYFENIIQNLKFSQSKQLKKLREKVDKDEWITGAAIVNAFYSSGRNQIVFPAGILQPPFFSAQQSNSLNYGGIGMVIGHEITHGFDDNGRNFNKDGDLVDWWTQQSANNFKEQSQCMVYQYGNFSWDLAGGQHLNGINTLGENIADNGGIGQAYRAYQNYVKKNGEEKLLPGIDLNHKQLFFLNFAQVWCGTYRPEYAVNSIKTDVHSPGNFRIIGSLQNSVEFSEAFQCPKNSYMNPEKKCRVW
The figure you give is taken to be in nM; do not add the unit.

Prompt line: Any idea what its IC50 is? The compound is Cc1cccc(C2CCC(C(=O)O)N2C(=O)CNC(=O)[C@@H](S)Cc2ccc(O)cc2)c1 (stereo partly specified)
Response line: 1.5

Prompt line: Another: Cc1ccccc1C1CC[C@@H](C(=O)O)N1C(=O)CNC(=O)[C@@H](S)Cc1ccc(O)cc1 (single isomer, unassigned)
Response line: 2.7

Prompt line: Another: O=C(NCC(=O)N1[C@@H](c2ccccc2)CC[C@H]1C(=O)O)[C@@H](S)Cc1ccc(O)cc1
Response line: 3.4

Prompt line: Another: O=C(NCC(=O)N1[C@@H](c2ccc(O)cc2)CC[C@H]1C(=O)O)[C@@H](S)Cc1ccc(O)cc1
Response line: 6.36

Prompt line: Another: O=C(NCC(=O)N1[C@@H](c2cccc(O)c2)CC[C@H]1C(=O)O)[C@@H](S)Cc1ccccc1
Response line: 2.4

Prompt line: Another: COc1ccc(C[C@H](S)C(=O)NCC(=O)N2[C@@H](c3ccccc3O)CC[C@H]2C(=O)O)cc1
Response line: 2.2

* * *

# Tested target: Angiotensin-converting enzyme (Rattus norvegicus)
# Sequence (P47820 whole entry): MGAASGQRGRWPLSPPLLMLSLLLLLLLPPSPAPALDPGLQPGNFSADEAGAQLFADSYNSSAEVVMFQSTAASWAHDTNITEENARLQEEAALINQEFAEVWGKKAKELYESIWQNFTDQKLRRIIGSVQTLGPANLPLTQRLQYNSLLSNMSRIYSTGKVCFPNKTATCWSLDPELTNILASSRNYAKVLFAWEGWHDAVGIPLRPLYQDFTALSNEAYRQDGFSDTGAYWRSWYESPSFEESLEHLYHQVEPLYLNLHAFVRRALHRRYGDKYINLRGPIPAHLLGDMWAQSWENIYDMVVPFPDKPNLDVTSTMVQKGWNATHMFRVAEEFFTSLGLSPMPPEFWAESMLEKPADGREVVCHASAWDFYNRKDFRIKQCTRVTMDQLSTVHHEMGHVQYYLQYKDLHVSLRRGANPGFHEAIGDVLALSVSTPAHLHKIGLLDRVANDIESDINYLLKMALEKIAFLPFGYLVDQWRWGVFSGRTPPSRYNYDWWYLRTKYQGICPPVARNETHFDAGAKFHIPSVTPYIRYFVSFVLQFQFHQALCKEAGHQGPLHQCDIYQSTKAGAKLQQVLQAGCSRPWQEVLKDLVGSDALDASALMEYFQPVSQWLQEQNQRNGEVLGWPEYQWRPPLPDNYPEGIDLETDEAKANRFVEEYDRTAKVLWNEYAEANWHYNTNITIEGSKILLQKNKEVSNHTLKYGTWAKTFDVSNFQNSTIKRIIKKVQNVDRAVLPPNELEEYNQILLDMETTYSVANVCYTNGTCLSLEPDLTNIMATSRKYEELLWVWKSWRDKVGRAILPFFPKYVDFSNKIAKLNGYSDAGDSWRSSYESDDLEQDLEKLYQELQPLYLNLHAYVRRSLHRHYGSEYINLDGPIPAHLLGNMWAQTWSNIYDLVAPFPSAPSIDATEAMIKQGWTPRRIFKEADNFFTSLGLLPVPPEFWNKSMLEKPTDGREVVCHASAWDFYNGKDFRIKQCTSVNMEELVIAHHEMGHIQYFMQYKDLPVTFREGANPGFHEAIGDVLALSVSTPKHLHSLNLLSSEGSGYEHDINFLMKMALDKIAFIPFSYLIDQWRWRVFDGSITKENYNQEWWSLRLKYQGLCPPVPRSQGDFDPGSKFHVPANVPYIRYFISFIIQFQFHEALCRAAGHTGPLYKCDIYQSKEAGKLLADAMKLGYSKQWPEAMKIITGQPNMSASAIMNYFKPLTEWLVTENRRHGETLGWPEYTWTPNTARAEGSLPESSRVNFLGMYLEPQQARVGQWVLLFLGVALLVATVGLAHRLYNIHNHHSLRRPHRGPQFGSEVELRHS
For each entry below, report its log10(IC50) value.
A value of 2 here means IC50 of 100 in nM, since values are log10.

Prompt line: Any idea what its log10(IC50) is? The molecule is O=C(NCC(=O)N1[C@@H](c2cccc(O)c2)CC[C@H]1C(=O)O)[C@@H](S)Cc1cccc(O)c1
Response line: 0.51

Prompt line: Another: O=C(NCC(=O)N1[C@@H](c2cccc(O)c2)CC[C@H]1C(=O)O)[C@@H](S)Cc1ccccc1
Response line: 0.18

Prompt line: Another: Cc1ccc([C@H]2CC[C@@H](C(=O)O)N2C(=O)CNC(=O)[C@@H](S)Cc2ccc(O)cc2)cc1
Response line: 0.40

Prompt line: Another: Cc1ccccc1[C@@H]1CCC(C(=O)O)N1C(=O)CNC(=O)[C@@H](S)Cc1ccccc1 (single isomer, unassigned; 18)
Response line: 1.68

Prompt line: Another: O=C(NCC(=O)N1[C@@H](c2ccccc2O)CC[C@H]1C(=O)O)[C@@H](S)Cc1ccc(O)cc1
Response line: -0.22

Prompt line: Another: O=C(NCC(=O)N1[C@@H](c2ccccc2)CC[C@H]1C(=O)O)[C@@H](S)Cc1ccc(O)cc1
Response line: 0.62

* * *

UniProtKB P08049 measurements of IC50, listed per entry.
The figure you give is taken to be in nM; do not add the unit.

Prompt line: Any idea what its IC50 is? The molecule is Cc1ccc([C@H]2CC[C@@H](C(=O)O)N2C(=O)CNC(=O)[C@@H](S)Cc2ccc(O)cc2)cc1
Response line: 5.5

Prompt line: Another: Nc1ccc(C[C@H](S)C(=O)NCC(=O)N2[C@@H](c3ccccc3)CC[C@H]2C(=O)O)cc1
Response line: 1.8

Prompt line: Another: Nc1ccc([C@H]2CC[C@@H](C(=O)O)N2C(=O)CNC(=O)[C@@H](S)Cc2ccc(O)cc2)cc1
Response line: 26

Prompt line: Another: Cc1ccccc1C1CC[C@H](C(=O)O)N1C(=O)CNC(=O)[C@@H](S)Cc1ccccc1 (single isomer, unassigned)
Response line: 25
